Ref: patent US20240067748A1

I'd appreciate it if you could supply pEC50 values for the items below.
Molecular target: T1, monkey Trop2 on CHO-K1 cells (monkey, UniProt A0A2K5UE71 27-323)
T1 construct: also called CHO-K1/monkey Trop2
T1 sequence: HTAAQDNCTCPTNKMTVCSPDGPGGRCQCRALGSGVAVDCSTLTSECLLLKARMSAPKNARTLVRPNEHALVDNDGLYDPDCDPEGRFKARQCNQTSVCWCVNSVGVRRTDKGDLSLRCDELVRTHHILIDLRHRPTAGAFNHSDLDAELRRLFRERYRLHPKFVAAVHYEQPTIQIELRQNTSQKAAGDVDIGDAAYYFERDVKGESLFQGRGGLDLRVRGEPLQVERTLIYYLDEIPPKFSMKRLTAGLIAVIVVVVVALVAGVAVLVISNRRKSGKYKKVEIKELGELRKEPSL
Test: flow cytometry on CHO-K1/monkey Trop2 cells
Numbers only, as −log10 of the molar value.

Answered cases to consult:
PR001128 (antibody, human IgG1, kappa, V domains shown, fully human IgG1/kappa; also called antibody No. (1)) VH: QVQLQESGPGLVKPSGTLSLTCAVSGGSISSSNWWSWVRQPPGKGLEWIGEIFHSGTTYYNPSLKSRVTILVDKSKNQFSLKLSSVTAADTAVYYCARDNTKSWDHFDHWGQGTLVTVSS VL: EIVLTQSPATLSLSPGERATLSCRASQSVGSYLAWYQQKPGQAPSLLIYDASNRATGIPARFSGSGSGTDFTLTISSLEPEDFAVYYCQQRTNWYTFGQGTKLEIKR; 8.59
PR001133 (antibody, human IgG1, kappa, V domains shown, fully human IgG1/kappa; also called antibody No. (5)) VH: QVNLVESGGGVVQPGRSLKLSCAASGFTFSSYGMHWVRQAPGKGLEWVALIWSDGTNRYYTESVKGRFTISRDNSKNTLSLQMKSLRAEDTAVYYCAKDGWGTYGEYFQHWGQGTLVTVSS VL: DIQMTQSPSSLSASVGDRVTITCRASQNINSYLHWYQQKPGKAPKLLIYAASSLQSGVPSRFSGSGSGTDFTLTISSLQPEDFAIYYCQQSYSIPPITFGQGTRLEIKR; 8.54

I would be grateful if you could provide pEC50 for each of the following entries.
1. PR001166 (antibody, human IgG1, kappa, V domains shown, fully human IgG1/kappa; also called antibody No. (27)) VH: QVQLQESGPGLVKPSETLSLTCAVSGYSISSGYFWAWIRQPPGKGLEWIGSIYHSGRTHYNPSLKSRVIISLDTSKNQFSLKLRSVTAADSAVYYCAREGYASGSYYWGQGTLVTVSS VL: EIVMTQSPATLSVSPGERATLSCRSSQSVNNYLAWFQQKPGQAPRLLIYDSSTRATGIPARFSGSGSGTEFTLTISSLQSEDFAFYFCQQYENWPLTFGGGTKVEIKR
2. PR001162 (antibody, human IgG1, kappa, V domains shown, fully human IgG1/kappa; also called antibody No. (23)) VH: QVQLVESGGGVVQPGTSLRLSCVASGFTFSNDGMHWVRQAPGMGLEWVAIMWFDGGSKYYADSVKGRFTISRDNSKNTLYLQMNNLRAEDTAVYYCARDHPHYLGSGSFDYWGQGTLVTVSS VL: EIVLTQSPATLSLSPGERATLSCRASQSVSSYLAWYQQKPGQAPRLLIYDASNRATGIPARFSGSGSGTDFTLTISSLQAEDVAVYYCQQYYSTPYTFGQGTKLEIKR

1: 8.71; 2: 8.65
